# STUDY_TARGET: 37 kDa laminin receptor precursor (37LRP/67LR) (Homo sapiens)
# PROTOCOL_SUMMARY: ELISA-type inhibition of r37LRP binding to immobilized laminin (and YIGSR)
METRIC: pIC50
// returns pIC50 (minus log10 of molar concentration), number only

Query (compound): COc1ccc(NCc2c(O)ccc3ccccc23)cc1 ; field requested: pIC50
4.23

Values compiled from paper PMC4627239.
